molecular target: human kisspeptin receptor (Homo sapiens (Human)); test: Human KISS1R binding assay (membrane competition binding); conditions: 90 min at room temperature; competition with 0.2 nM [125I]-metastin (45-54); Flp-In T-Rex 293 kisspeptin membranes; metal complexes nonradioactive Ga, In, Lu; read-out: hKiSSR Binding Ki (90 min)
pKi: −log10 of the molar value. Square brackets hold non-standard residues; d marks the D form. Peptide text beside a SMILES is read from it. * marks the point of attachment. DOTA = O=C(O)CN1CCN(CC(=O)O)CCN(CC(=O)*)CCN(CC(=O)O)CC1; Gly(N-(3-F-4-Me-benzyl)) = Cc1ccc(CNCC(=O)*)cc1F; Gly(Nα-4-MeO-benzyl) = COc1ccc(CNCC(=O)*)cc1; Api(1-amidino) = N=C(N)N1CCC(N)(C(=O)O)CC1; Hydrocinnamoyl(4-I) = O=C(CCc1ccc(I)cc1)*; 4Pal = N[C@@H](Cc1ccncc1)C(=O)O; 4Amb = NCc1ccc(C(=O)O)cc1; Api = NC1(C(=O)O)CCNCC1; PEG2 = NCCOCCOCCC(=O)O; Ahx = NCCCCCC(=O)O; azaGly = NNC(=O)O
readout: pKi

q: // fetch human kisspeptin receptor (Homo sapiens (Human)) pKi for Cc1ccc(CNCC(=O)N2CCC(NC(=O)[C@H](CC(C)C)NC(=O)NNC(=O)[C@H](Cc3ccccc3)NC(=O)[C@@H](NC(=O)[C@H](CC(N)=O)NC(=O)[C@@H](Cc3c[nH]c4ccccc34)NC(=O)[C@@H](Cc3ccc(O)cc3)NC(=O)CCCCCNC(=O)CN3CCN(CC(=O)O)CCN(CC(=O)O)CCN(CC(=O)O)CC3)[C@@H](C)O)(C(=O)N[C@H](Cc3c[nH]c4ccccc34)C(N)=O)CC2)cc1F [Compound 383] ({DOTA-Ahx}-[dY][dW]NTF[azaGly]L[Api](Gly(N-(3-F-4-Me-benzyl)))[dW]-NH2)
a: > 8.00

q: Missing value: pKi, human kisspeptin receptor (Homo sapiens (Human)), entry CC(C)C[C@H](NC(=O)NNC(=O)[C@H](Cc1ccccc1)NC(=O)[C@@H](NC(=O)[C@H](CC(N)=O)NC(=O)c1ccc(CNC(=O)CN2CCN(CC(=O)O)CCN(CC(=O)O)CCN(CC(=O)O)CC2)cc1)[C@@H](C)O)C(=O)NC1(C(=O)N[C@@H](Cc2ccncc2)C(N)=O)CCN(C(=N)N)CC1 [Compound 272] ({DOTA-4Amb}-NTF[azaGly]L[Api(1-amidino)][4Pal]-NH2) . Fill in?
a: > 8.00

q: Identify the measured pKi of Cc1ccc(CNCC(=O)N2CCC(NC(=O)[C@H](CC(C)C)n3cc([C@H](Cc4ccccc4)NC(=O)[C@@H](N)CCCCNC(=O)CN4CCN(CC(=O)O)CCN(CC(=O)O)CCN(CC(=O)O)CC4)nn3)(C(=O)N[C@@H](Cc3c[nH]c4ccccc34)C(N)=O)CC2)cc1F [Compound 204] for human kisspeptin receptor (Homo sapiens (Human)).
a: < 7.00

q: Write down the reported pKi of COc1ccc(CNCC(=O)N2CCC(NC(=O)[C@H](CC(C)C)NC(=O)NNC(=O)[C@H](Cc3ccccc3)NC(=O)[C@@H](NC(=O)[C@H](CC(N)=O)NC(=O)CCCCCNC(=O)CN3CCN(CC(=O)O)CCN(CC(=O)O)CCN(CC(=O)O)CC3)[C@@H](C)O)(C(=O)N[C@@H](Cc3ccccc3)C(N)=O)CC2)cc1 [Compound 235] ({DOTA-Ahx}-NTF[azaGly]L[Api](Gly(Nα-4-MeO-benzyl))F-NH2) , test system: human kisspeptin receptor (Homo sapiens (Human)).
a: > 8.00

q: Please state recorded pKi (tested on human kisspeptin receptor (Homo sapiens (Human))) of CC(C)C[C@H](NC(=O)NNC(=O)[C@H](Cc1ccccc1)NC(=O)[C@@H](NC(=O)[C@H](CC(N)=O)NC(=O)[C@@H](CCCCNC(=O)CN1CCN(CC(=O)O)CCN(CC(=O)O)CCN(CC(=O)O)CC1)NC(=O)[C@@H](Cc1ccc(O)cc1)NC(=O)CCOCCOCCNC(=O)CCc1ccc(I)cc1)[C@@H](C)O)C(=O)NC1(C(=O)N[C@@H](Cc2c[nH]c3ccccc23)C(N)=O)CCN(C(=N)N)CC1 [Compound 334] ({Hydrocinnamoyl(4-I)-PEG2}-[dY][dK](DOTA)NTF[azaGly]L[Api(1-amidino)]W-NH2)
a: > 8.00

###

target: human kisspeptin receptor (Homo sapiens (Human), UniProt Q969F8); experiment: Human KISS1R binding assay (membrane competition binding); settings: 90 min at room temperature; competition with 0.2 nM [125I]-metastin (45-54); Flp-In T-Rex 293 kisspeptin membranes; metal complexes nonradioactive Ga, In, Lu; read-out: hKiSSR Binding Ki (90 min)
Sequence (Q969F8 whole entry): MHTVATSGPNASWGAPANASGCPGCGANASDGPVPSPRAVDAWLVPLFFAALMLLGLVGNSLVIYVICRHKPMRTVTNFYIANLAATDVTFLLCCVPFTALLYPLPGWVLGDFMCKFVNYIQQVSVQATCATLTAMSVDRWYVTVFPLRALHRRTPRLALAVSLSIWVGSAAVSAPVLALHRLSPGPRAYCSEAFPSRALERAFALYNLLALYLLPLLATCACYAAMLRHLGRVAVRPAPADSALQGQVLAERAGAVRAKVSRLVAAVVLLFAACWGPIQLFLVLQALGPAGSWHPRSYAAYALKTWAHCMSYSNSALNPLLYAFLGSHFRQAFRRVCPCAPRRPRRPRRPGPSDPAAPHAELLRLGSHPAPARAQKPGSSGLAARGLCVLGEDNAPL
pKi: −log10 of the molar value. Numbered stars: 1 amine (or outer) side, 2 acyl side, 3 side chain; on linkers, the order of the positions; unused ones are H or OH. Square brackets hold non-standard residues; d marks the D form. Peptide text beside a SMILES is read from it. * marks the point of attachment. X8 = COCCOCCOCCOCCOCCOCCOCCOCCOCCOCCOCCOCCOCCOCCOCCOCCOCCOCCOCCOCCOCCOCCOCCOCCOCCC(=O)*; DOTA = O=C(O)CN1CCN(CC(=O)O)CCN(CC(=O)*)CCN(CC(=O)O)CC1; Gly(N-(3-F-4-Me-benzyl)) = Cc1ccc(CNCC(=O)*)cc1F; Api(1-amidino) = N=C(N)N1CCC(N)(C(=O)O)CC1; Bip = N[C@@H](Cc1ccc(-c2ccccc2)cc1)C(=O)O; X1 = O=C(CN1CCC(N[*:1])CC1)[*:2]; Api = NC1(C(=O)O)CCNCC1; Ahx = NCCCCCC(=O)O; azaGly = NNC(=O)O; Sar = CNCC(=O)O
readout: pKi

q: Reported pKi, molecule Cc1ccc(CNCC(=O)N2CCC(NC(=O)c3cc(OCCNC(=O)[C@H](Cc4ccccc4)NC(=O)CCCCCNC(=O)CN4CCN(CC(=O)O)CCN(CC(=O)O)CCN(CC(=O)O)CC4)c(-c4ccccc4)cc3C)(C(=O)N[C@@H](Cc3c[nH]c4ccccc34)C(N)=O)CC2)cc1F : ____
a: < 7.00

q: Please look up its pKi: Cc1ccc(CNCC(=O)N2CCC(NC(=O)[C@H](CC(C)C)NC(=O)NNC(=O)[C@H](Cc3ccccc3)NC(=O)[C@@H](NC(=O)CN3CCC(NC(=O)CN4CCN(CC(=O)O)CCN(CC(=O)O)CCN(CC(=O)O)CC4)CC3)[C@@H](C)O)(C(=O)N[C@@H](Cc3ccc(O)cc3)C(N)=O)CC2)cc1F [Compound 250] ({DOTA}-[X1]TF[azaGly]L[Api](Gly(N-(3-F-4-Me-benzyl)))Y-NH2)
a: > 8.00

q: Reported pKi for CNCC(=O)N1CCC(NC(=O)[C@H](CC(C)C)NC(=O)NNC(=O)[C@H](Cc2ccccc2)NC(=O)[C@@H](NC(=O)[C@H](CC(N)=O)NC(=O)[C@H](Cc2ccc(-c3ccccc3)cc2)NC(=O)[C@@H](Cc2ccc(O)cc2)NC(=O)CCCCCNC(=O)CN2CCN(CC(=O)O)CCN(CC(=O)O)CCN(CC(=O)O)CC2)[C@@H](C)O)(C(=O)N[C@H](Cc2c[nH]c3ccccc23)C(N)=O)CC1 [Compound 389] ({DOTA-Ahx}-[dY][Bip]NTF[azaGly]L[Api](Sar)[dW]-NH2) : what is it?
a: > 8.00

q: Returns the measured pKi for the input molecule. Input: CC(C)C[C@H](NC(=O)NNC(=O)[C@H](Cc1ccccc1)NC(=O)[C@@H](NC(=O)[C@H](CC(N)=O)NC(=O)[C@H](Cc1ccc(-c2ccccc2)cc1)NC(=O)[C@@H](Cc1ccc(O)cc1)NC(=O)CCCCCNC(=O)CN1CCN(CC(=O)O)CCN(CC(=O)O)CCN(CC(=O)O)CC1)[C@@H](C)O)C(=O)NC1(C(=O)N[C@@H](Cc2c[nH]c3ccccc23)C(N)=O)CCN(C(=N)N)CC1 [Compound 198] ({DOTA-Ahx}-[dY][Bip]NTF[azaGly]L[Api(1-amidino)]W-NH2)
a: > 8.00

q: Field request: pKi | item: COCCOCCOCCOCCOCCOCCOCCOCCOCCOCCOCCOCCOCCOCCOCCOCCOCCOCCOCCOCCOCCOCCOCCOCCOCCC(=O)N[C@H](Cc1ccc(O)cc1)C(=O)N[C@@H](CCCCNC(=O)CN1CCN(CC(=O)O)CCN(CC(=O)O)CCN(CC(=O)O)CC1)C(=O)N[C@@H](CC(N)=O)C(=O)N[C@H](C(=O)N[C@@H](Cc1ccccc1)C(=O)NNC(=O)N[C@@H](CC(C)C)C(=O)NC1(C(=O)N[C@@H](Cc2c[nH]c3ccccc23)C(N)=O)CCN(C(=N)N)CC1)[C@@H](C)O [Compound 182] (X8-[dY]K(DOTA)NTF[azaGly]L[Api(1-amidino)]W-NH2)
a: > 8.00

The reported measurements were obtained from patent US20250312499A1.
